- tested.target: HA-tagged mouse-human-mouse chimeric TGF-β1, mouse LAP residues 223-278 replaced by the corresponding human LAP segment, on HEK-293T cells co-transfected with GARP (mouse; human) (UniProt P04202)
- assay.notes: flow cytometry, HEK-293T cells co-transfected with mGarp and the HA-tagged TGF-β1 construct
observed.property: % binding relative to WT TGF-β1 (100 %)
// note: answer is a bare numeric in %

Recorded results for 3 binders are shown here.
Give % binding relative to WT TGF-β1 (100 %) for LMT-10 (20G4) (antibody, V domains shown) VH: QVQLVESGGGLVQPGGSLTLSCAASGFTFSNYYMTWVRQAPGKGLEWVSSIYSTGSHTYYADSVKGRFTISRDNAKDTLYLQMNDLKSEDTAVYYCAKNIYTYYTAHYAGMDYWGKGTLVTVSS VL: QSALTQPSTVSVSLGQMARITCQGGSLGSYDAHWYQQKPGQAPVLVIHDDNSRPSGIPERFSGSRSGGTATLTISGAQADDEGVYFCHSYDSSANAPVFGGGTELTVL
99

Give % binding relative to WT TGF-β1 (100 %) for LMT-2 (6D12) (antibody, V domains shown) VH: EVQLVESGGGLVQPGGSLRLSCAASGFTFSNYGVHWVRQAPGKGLEWVSHISAAGISRYYADAVKGRFTMSRDNGKNTLYLQMNGLKSEDTAVYYCAKDRIRSSYEYDSWGQGTQVTVSS VL: LPVLTQLSSMSGSPGQTVTITCTGSSSNIGGGYYLSWYQQLPGTAPKLLIYNANNRASGVPNRFSGSKSGNLASLTITGLQAEDEADYYCGCYDSSLSTGYVFGGGTKLTVL
115

Give % binding relative to WT TGF-β1 (100 %) for LMT-12 (14D7) (antibody, V domains shown) VH: EVQLVESGGGLVQPGGSLRLSCAASGFTFSSYYMYWVRQAPGKGLEWVSGTSIGGGSTWYADSVKGRFTISRDNAKNTLYLQMNNLKSEDTAVYYCAKDLNSRSYKGMGDWGQGTQVTVSS VL: QPALTQLSSMSGSPGQTVTITCTGSSSNIGGGYYLNWYQQLPGAAPKLVIYNANNRASGVPDRFSGSKSGNLASLTITGLQAEDEAVYFCGCYDSSLSSVVFGGGTHLTVL
89

Kindly consider the entry below.
Give % binding relative to WT TGF-β1 (100 %) for LMT-9 (20G3) (antibody, V domains shown) VH: LQLVESGGGLVQPGGSLRLSCAASGFTFSRSGMAWVRQAPGKGLEWVSAITPGGTATYYANSVKGRVTMSRDNAKNTLYLQMNSLKSEDTAVYYCAKGLVSSGLNGMDYWGKGTLVTVSS VL: QSVLTQLSSMSGSPGQTVTITCTGSSSNIGGGYYLSWYQQLPGTAPKLLIYNTNNRASGVPNRFSGSKTGSLASLTITGLQAEDEADYYCGCYDDSLNTYVFGGGTKLTVL
126

The measured values listed here are drawn from patent US20250188161A1.
